System: HepG2 cells
Experiment: Evaluation of PLsis (NBD-PE uptake)
Type: cell-based
Settings: 24 hr exposure, relative to 10 μM Amiodarone, maximum value per unit concentration
For each entry below, report its PLsis induction potential value.
// print number alone

Form field: reported PLsis induction potential of Cc1c(NC(=O)c2ccc(OCC3CC3)cc2)ccc2cc(CN[C@H]3CC[C@H](O)CC3)cnc12 [Com. Ex. 1, reference compound] 23.5

What measured PLsis induction potential goes with "Cc1c(NC(=O)c2ccc(OC[C@@H]3CCCO3)cc2)ccc2cc(CN[C@H]3CC[C@](C)(O)CC3)cnc12" ? 1.4

State the recorded PLsis induction potential for this entry: "Cc1c(NC(=O)c2ccc(OC[C@@H]3CCCO3)cc2)ccc2cc(CNC3CCOCC3)cnc12" 1.7

Need PLsis induction potential of Cc1c(NC(=O)c2ccc(OCC3CC3)cc2)ccc2cc(CNC3CCC(C)(O)CC3)cnc12 (stereo not shown) [Com. Ex. 2, reference compound] , thanks. 27.8

====

I'd be grateful if you could share measured IC50 for these entries.
Target: human SLC-1 (Homo sapiens)
Sequence (Q99705 whole entry): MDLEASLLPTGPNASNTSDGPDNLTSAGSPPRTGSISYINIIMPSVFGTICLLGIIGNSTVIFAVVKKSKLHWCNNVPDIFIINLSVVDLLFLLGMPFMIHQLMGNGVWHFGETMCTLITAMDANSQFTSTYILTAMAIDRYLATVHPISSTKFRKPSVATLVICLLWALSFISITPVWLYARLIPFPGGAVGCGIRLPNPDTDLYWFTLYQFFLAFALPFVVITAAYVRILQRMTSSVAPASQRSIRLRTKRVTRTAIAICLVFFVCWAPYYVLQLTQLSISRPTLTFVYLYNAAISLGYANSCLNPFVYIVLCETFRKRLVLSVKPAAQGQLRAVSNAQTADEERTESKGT
Assay: MCH receptor antagonistic activity (inhibitory activity, Experimental Example 1)
Assay type: biochemical
Use nM as the unit, but write only the number.

Query the reported IC50 for human SLC-1 (Homo sapiens); item: "CCCNCc1cnc2c(C)c(NC(=O)c3ccc(OC[C@@H]4CCCO4)cc3)ccc2c1" 3.1

Hello, I am looking for reported IC50 with human SLC-1 (Homo sapiens) for "Cc1c(NC(=O)c2ccc(OC[C@@H]3CCCO3)cc2)ccc2cc(CN[C@H]3CC[C@](C)(O)CC3)cnc12" . Could you help? 2.9

What IC50 appears in the records for this compound with human SLC-1 (Homo sapiens)? "Cc1c(NC(=O)c2ccc(OC[C@@H]3CCCO3)cc2)ccc2cc(CNCC3(C)COC3)cnc12" 5.5

Observed IC50 on human SLC-1 (Homo sapiens) for "CCCNCc1cnc2c(C)c(NC(=O)c3ccc(OC[C@@H]4CCCO4)cc3F)ccc2c1" , please. 5

Any idea what IC50 came out for "Cc1c(NC(=O)c2ccc(OC[C@@H]3CCCO3)cc2)ccc2cc(CNC3CCOCC3)cnc12" on human SLC-1 (Homo sapiens)? 3.1

Please provide the recorded IC50 for "Cc1c(NC(=O)c2ccc(OC[C@@H]3CCCO3)cc2)ccc2cc(CN[C@H]3CC[C@@](C)(O)CC3)cnc12" , tested on human SLC-1 (Homo sapiens). 6.5

Can you look up IC50 on human SLC-1 (Homo sapiens) for "Cc1c(NC(=O)c2ccc(OC[C@@H]3CCCO3)cc2)ccc2cc(CNCC3CCOCC3)cnc12" ? 6

Quick check: IC50 on human SLC-1 (Homo sapiens), item "Cc1c(NC(=O)c2ccc(OC[C@@H]3CCCO3)cc2)ccc2cc(CNC3CCC3)cnc12" ? 9.8

So what IC50 did "Cc1c(NC(=O)c2ccc(OC[C@H]3CCCO3)cc2)ccc2cc(CN[C@H]3CC[C@H](O)CC3)cnc12" get with human SLC-1 (Homo sapiens)? 7.7

Please provide the recorded IC50 for "Cc1c(NC(=O)c2ccc(OC[C@@H]3CCCO3)cc2)ccc2cc(CN[C@H]3CCCC[C@@H]3O)cnc12" , tested on human SLC-1 (Homo sapiens). 6.8

====

Molecular target: UniProtKB Q99705
Assay: MCH receptor antagonistic activity (inhibitory activity, Experimental Example 1)
Assay type: biochemical
readout.label: IC50
# output: number + unit

# value lookup — system UniProtKB Q99705, readout IC50, item Cc1c(NC(=O)c2ccc(OC[C@@H]3CCCO3)cc2)ccc2cc(CN[C@@H]3CCCC[C@H]3O)cnc12 [Example 46] 4.5 nM

// map Cc1c(NC(=O)c2ccc(OCC3CCOC3)cc2)ccc2cc(CNC3CCCC3)cnc12 (centres unmarked) [Example 16] to recorded IC50 (system: UniProtKB Q99705) 2.8 nM

// lookup IC50 | system=UniProtKB Q99705 | key= Cc1c(NC(=O)c2ccc(OC[C@@H]3CCCO3)cc2)ccc2cc(CNCC(C)(C)C)cnc12 [Example 39] 1.8 nM

Lookup: IC50 / UniProtKB Q99705 / Cc1c(NC(=O)c2ccc(OC[C@@H]3CCCO3)cc2)ccc2cc(CNC[C@H]3CCCO3)cnc12 [Example 27] 6.3 nM

Which measured IC50 belongs to Cc1c(NC(=O)c2ccc(OC[C@@H]3CCCO3)cc2)ccc2cc(CNCCOC(C)C)cnc12 [Example 49] , tested on UniProtKB Q99705? 4.8 nM

// fetch UniProtKB Q99705 IC50 for Cc1c(NC(=O)c2ccc(OC[C@@H]3CCCO3)cc2)ccc2cc(CN3CCC(C)(O)CC3)cnc12 [Example 72] 4.5 nM

API: value(readout=IC50, system=UniProtKB Q99705) for record Cc1c(NC(=O)c2ccc(OC[C@H]3CCCO3)cc2)ccc2cc(CNCC(C)(C)C)cnc12 [Example 25] 3.4 nM

What is its IC50 for UniProtKB Q99705? Entry: Cc1c(NC(=O)c2ccc(OC[C@@H]3CCCO3)cc2F)ccc2cc(CNCC(C)(C)O)cnc12 [Example 67] 7.8 nM

====

Molecular target: UniProt:P97639
Test: MCH receptor antagonistic activity (inhibitory activity, Experimental Example 1)
Type: biochemical
Assign IC50 to each entry below.
# do not omit the unit; it follows the number

Item "Cc1c(NC(=O)c2ccc(OC[C@@H]3CCCO3)cc2)ccc2cc(CN[C@H]3CC[C@H](O)CC3)cnc12" with UniProt:P97639 - IC50? 8.3 nM

Provide value of IC50 for this record tested with UniProt:P97639: "Cc1c(NC(=O)c2ccc(OC[C@@H]3CCCO3)cc2)ccc2cc(CNC3CCC3)cnc12" 17 nM

Request body: readout IC50, system UniProt:P97639, query "Cc1c(NC(=O)c2ccc(OC[C@@H]3CCCO3)cc2F)ccc2cc(CN[C@H]3CC[C@](C)(O)CC3)cnc12" . Return the value. 7.1 nM

Request: IC50, test system UniProt:P97639, entry "Cc1c(NC(=O)c2ccc(OC[C@@H]3CCCO3)cc2)ccc2cc(CNCC(C)C)cnc12" 1.7 nM

====

Target: rat SLC-1 (Rattus norvegicus, UniProt P97639)
Sequence (P97639 whole entry): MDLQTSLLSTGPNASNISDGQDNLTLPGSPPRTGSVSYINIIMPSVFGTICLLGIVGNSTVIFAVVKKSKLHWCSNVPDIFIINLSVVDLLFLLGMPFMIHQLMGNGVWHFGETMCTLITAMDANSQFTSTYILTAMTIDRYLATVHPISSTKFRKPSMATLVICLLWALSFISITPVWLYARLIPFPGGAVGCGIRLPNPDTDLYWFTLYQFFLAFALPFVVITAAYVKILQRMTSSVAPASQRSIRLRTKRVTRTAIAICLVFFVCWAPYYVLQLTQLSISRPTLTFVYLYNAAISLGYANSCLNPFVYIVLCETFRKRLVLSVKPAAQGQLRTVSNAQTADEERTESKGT
Experiment: MCH receptor antagonistic activity (inhibitory activity, Experimental Example 1)
Assay type: biochemical
Structures can show the parent of a compound that is named as a salt.
Give measured IC50 for each item. Keep answers brief.
Write the number in nM without appending the unit.

Which IC50 value belongs to "CCCNCc1cnc2c(C)c(NC(=O)c3ccc(OC[C@@H]4CCCO4)cc3F)ccc2c1" ? 8

Find the recorded IC50 belonging to "Cc1c(NC(=O)c2ccc(OC[C@@H]3CCCO3)cc2)ccc2cc(CNCC3CC3)cnc12" and report it. 4.1

Name the recorded IC50 for "Cc1c(NC(=O)c2ccc(OC[C@@H]3CCCO3)cc2)ccc2cc(CNC[C@@H]3CCCO3)cnc12" . 4.6

Look up IC50: Cc1c(NC(=O)c2ccc(OCC3CCOC3)cc2)ccc2cc(CNC3CCCC3)cnc12 (stereo not drawn) 3.2

Quick check: IC50 of "Cc1c(NC(=O)c2ccc(OC[C@@H]3CCCO3)cc2)ccc2cc(CNCC3(C)COC3)cnc12" ? 6.5

Param item = "Cc1c(NC(=O)c2ccc(OC[C@@H]3CCCO3)cc2)ccc2cc(CNCC3CCOCC3)cnc12" ; retrieve measured IC50. 6.4

Would you kindly share the measured IC50 for "Cc1c(NC(=O)c2ccc(OC[C@@H]3CCCO3)cc2)ccc2cc(CN[C@@H]3CCCC[C@H]3O)cnc12" ? 6.5

GET /values?readout=IC50&item= Cc1c(NC(=O)c2ccc(OCC3CCOC3)cc2)ccc2cc(CNCC(C)C)cnc12 (single isomer, unassigned) 2.1

I have this compound here, COC(C)(C)CNCc1cnc2c(C)c(NC(=O)c3ccc(OC[C@@H]4CCCO4)cc3)ccc2c1 [Example 30, dihydrochloride] , and I need its recorded IC50. 11

Endpoint output: IC50 of "Cc1c(NC(=O)c2ccc(OC[C@@H]3CCCO3)cc2)ccc2cc(CNC[C@H]3CCCO3)cnc12" . Value? 7.8

Given the compound "CCNCc1cnc2c(C)c(NC(=O)c3ccc(OC[C@@H]4CCCO4)cc3)ccc2c1" , what is its reported IC50? 17

Fill in: IC50 of "CC[C@@H](C)NCc1cnc2c(C)c(NC(=O)c3ccc(OC[C@@H]4CCCO4)cc3)ccc2c1" is ___ 8.8

Record request: IC50 value, item "Cc1c(NC(=O)c2ccc(OC[C@H]3CCCO3)cc2)ccc2cc(CNCC(C)(C)C)cnc12" 3.5

Report IC50 for "Cc1c(NC(=O)c2ccc(OC[C@@H]3CCCO3)cc2)ccc2cc(CN[C@H](C)C(C)(C)C)cnc12" please. 11

Suppose we examine the compound "Cc1c(NC(=O)c2ccc(OC[C@@H]3CCCO3)cc2)ccc2cc(CN[C@H]3CC[C@](C)(O)CC3)cnc12" ; what IC50 value has been reported? 3.9

Each recorded value in this set is attributed to patent US8383647B2.
